# viability, T/C per entry
# Test system: LG0703-F948-PDC spheroids with HUVEC/MSC, viability;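 note: spheroids exposed to compounds for seven days before readout; T/C percent relative to DMSO vehicle wells set as 100% viability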
# Experiment: Anticancer human tumor LG0703-F948-PDC patient-derived lung adenocarcinoma cell line growth inhibition [IpAb]
# Details: second compound 3.16 µM; first compound 10 µM; stronger effect = lower value
Give just the number in %; leave the unit off.

C=CC(=O)N1CCN(c2nc(=O)n(-c3c(C)ccnc3C(C)C)c3nc(-c4c(O)cccc4F)c(F)cc23)C(C)C1 (configuration not stated) + CC(C)NCC(C(=O)N1CCN(c2ncnc3c2C(C)CC3O)CC1)c1ccc(Cl)cc1 ... 30.7
CC1(C)CCC(CN2CCN(c3ccc(C(=O)NS(=O)(=O)c4ccc(NCC5CCOCC5)c([N+](=O)[O-])c4)c(Oc4cnc5[nH]ccc5c4)c3)CC2)=C(c2ccc(Cl)cc2)C1 + CC(C)NCC(C(=O)N1CCN(c2ncnc3c2C(C)CC3O)CC1)c1ccc(Cl)cc1 ... 5.93
CCCS(=O)(=O)Nc1ccc(F)c(C(=O)c2c[nH]c3ncc(-c4ccc(Cl)cc4)cc23)c1F + CC(C)NCC(C(=O)N1CCN(c2ncnc3c2C(C)CC3O)CC1)c1ccc(Cl)cc1 ... 25.6
Cn1ncc(Cl)c1-c1cc(C(=O)NC(CN)Cc2cccc(F)c2)sc1Cl (configuration not stated) + CC(C)NCC(C(=O)N1CCN(c2ncnc3c2C(C)CC3O)CC1)c1ccc(Cl)cc1 ... 0.1

Query string: Supply viability, T/C value. Item: C=CCn1c(=O)c2cnc(Nc3ccc(N4CCN(C)CC4)cc3)nc2n1-c1cccc(C(C)(C)O)n1 + CC(C)NCC(C(=O)N1CCN(c2ncnc3c2C(C)CC3O)CC1)c1ccc(Cl)cc1
Result string: 3.11

Query string: Supply viability, T/C value. Item: Cn1nccc1Nc1nccc(-c2ccn(C(CO)c3ccc(Cl)c(F)c3)c(=O)c2)n1 (configuration not stated) + CC(C)NCC(C(=O)N1CCN(c2ncnc3c2C(C)CC3O)CC1)c1ccc(Cl)cc1
Result string: 5.88

Query string: Supply viability, T/C value. Item: Cc1nc(NC(=O)N2CCCC2C(N)=O)sc1-c1ccnc(C(C)(C)C(F)(F)F)c1 (configuration not stated) + CC(C)NCC(C(=O)N1CCN(c2ncnc3c2C(C)CC3O)CC1)c1ccc(Cl)cc1
Result string: 2.03
